measured_target: Peroxisome proliferator-activated receptor gamma (Homo sapiens) (UniProt P37231)
Sequence (P37231 whole entry, the tested form may be a part): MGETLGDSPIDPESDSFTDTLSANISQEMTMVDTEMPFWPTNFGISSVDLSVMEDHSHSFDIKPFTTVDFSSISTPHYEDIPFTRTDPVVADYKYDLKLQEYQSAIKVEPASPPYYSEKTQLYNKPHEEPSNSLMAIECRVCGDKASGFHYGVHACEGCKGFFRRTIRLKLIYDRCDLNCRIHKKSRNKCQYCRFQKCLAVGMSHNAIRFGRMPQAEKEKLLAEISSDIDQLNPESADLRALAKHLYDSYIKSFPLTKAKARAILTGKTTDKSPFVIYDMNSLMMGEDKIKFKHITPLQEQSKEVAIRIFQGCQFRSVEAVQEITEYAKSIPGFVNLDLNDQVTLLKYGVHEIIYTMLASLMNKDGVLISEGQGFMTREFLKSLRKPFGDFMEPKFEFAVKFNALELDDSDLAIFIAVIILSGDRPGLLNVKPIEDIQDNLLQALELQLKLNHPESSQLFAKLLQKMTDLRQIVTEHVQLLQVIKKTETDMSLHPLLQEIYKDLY
protocol_notes: Transactivation of chimeric GAL4-fused human PPARgamma transfected in HEK293EBNA cells measured at 24 hrs after drug treatment by steady-Glo luciferase assay reagent based luminescence assay relative to pioglitazone
Type: cell-based
Exercise: state measured Emax for each of the molecules provided.
Please state the figure in %; there is no need to write the unit.

The recorded Emax with Peroxisome proliferator-activated receptor gamma (Homo sapiens) (UniProt P37231) for C/C(=C1/c2ccc(Cn3c(C4CC4)nc4cscc43)cc2COc2cc(F)ccc21)c1noc(=O)[nH]1 was 13.7

The recorded Emax with Peroxisome proliferator-activated receptor gamma (Homo sapiens) (UniProt P37231) for C/C(=C1/c2ccc(Cc3c(C4CC4)nc4c5c(ccn34)OCC5)cc2COc2cc(F)ccc21)c1noc(=O)[nH]1 was 9.7

The recorded Emax with Peroxisome proliferator-activated receptor gamma (Homo sapiens) (UniProt P37231) for C/C(=C1/c2ccc(Cn3c(C4CC4)nc4c(Cl)nccc43)cc2COc2cc(F)ccc21)c1noc(=O)[nH]1 was 13.7

The recorded Emax with Peroxisome proliferator-activated receptor gamma (Homo sapiens) (UniProt P37231) for COCc1nc2c(Cl)cccn2c1Cc1ccc2c(c1)COc1cc(F)ccc1/C2=C(\C)c1noc(=O)[nH]1 was 7.4
